Experiment: chemical genetic growth profiling, strain panel (AID 1159580);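 further: tested at 20 µM; growth read once vehicle control cultures reached saturation at 30 °C; lower values mean less growth of the strain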
Details: S. cerevisiae deletion strains, growth OD, locus YBR009C, strain hhf1
The whole screen tested about 5,500 compounds, of which about 2,000 (36%) were called active. Not shown: some 18% with an inconclusive outcome. No stated cut-off is given here; in the data, active means normalized growth mostly below about 0.91 (no sharp cut-off); inconclusive means no clear call, values can overlap the other calls; inactive means mostly above about 0.92. Some of the results follow.
Pick from active, inactive when you respond.

For CC[C@H]1OC(=O)C[C@@H](O)[C@H](C)[C@@H](O[C@@H]2O[C@H](C)[C@@H](O[C@H]3C[C@@](C)(O)[C@@H](O)[C@H](C)O3)[C@H](N(C)C)[C@H]2O)[C@@H](CC=O)C[C@@H](C)C(=O)/C=C/C(C)=C/[C@@H]1CO[C@@H]1O[C@H](C)[C@@H](O)[C@@H](OC)[C@H]1OC , which call appears in the assay record? inactive

Tell me the assay call for COC(=O)COc1cc(Cl)c(Cl)cc1Cl please. inactive

Moving on to the next compound.
Hello, I am checking results. What call was entered for CCCCCCCCCCCCCCCCOP(=O)([O-])OCC[N+](C)(C)C ? active
